# target.under.test: ATF6 (Homo sapiens, UniProt P18850)
# Construct: endogenous in cells; host or cells: U2-OS (ATCC HTB-96) stably transduced with the Cignal Lenti ATF6 luc reporter (Qiagen #CLS-6031L)
# Sequence (P18850 whole entry): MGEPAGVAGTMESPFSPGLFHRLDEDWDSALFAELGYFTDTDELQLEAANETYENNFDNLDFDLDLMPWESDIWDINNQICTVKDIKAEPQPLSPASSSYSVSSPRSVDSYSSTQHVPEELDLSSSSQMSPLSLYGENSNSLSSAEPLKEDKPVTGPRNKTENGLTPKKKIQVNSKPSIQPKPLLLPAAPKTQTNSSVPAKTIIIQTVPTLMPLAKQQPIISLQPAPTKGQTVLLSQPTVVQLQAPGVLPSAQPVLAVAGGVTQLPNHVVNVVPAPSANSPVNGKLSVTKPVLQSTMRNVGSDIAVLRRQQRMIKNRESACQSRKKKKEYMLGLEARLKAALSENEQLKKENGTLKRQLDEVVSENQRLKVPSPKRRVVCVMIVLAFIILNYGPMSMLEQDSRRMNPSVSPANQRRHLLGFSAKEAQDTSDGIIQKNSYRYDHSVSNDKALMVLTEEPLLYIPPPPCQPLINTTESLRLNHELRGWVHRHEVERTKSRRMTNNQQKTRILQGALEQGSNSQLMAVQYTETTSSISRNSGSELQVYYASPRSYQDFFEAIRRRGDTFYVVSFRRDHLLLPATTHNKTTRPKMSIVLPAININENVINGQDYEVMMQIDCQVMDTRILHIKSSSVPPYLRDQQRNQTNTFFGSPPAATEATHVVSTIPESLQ
# assay: ERSE ATF6-luciferase assay in presence of Tg-induced ER stress (U2-OS ATF6 TRE-luciferase reporter cells)
# Format: cell-based
# measurement.parameters: U2OS, 8 h, 10 μM test compound, in presence of ER stress (thapsigargin), Tg only = 100%, Table 2-2
measurement.label: activity at 10 µM

Below, 3 molecules whose answers are already recorded.
CC(c1ccc(C(F)(F)F)cc1C(F)(F)F)n1cc(CCc2nnc(-c3ccccn3)s2)cn1 (stereo not drawn) [Compound 2-9]; < 50%
CC(c1ccc(C(F)(F)F)cc1C(F)(F)F)n1cc(/C=C/c2nnc(-c3ccccn3)s2)cn1 (stereo not drawn) [Compound 2-5]; < 50%
CC(c1ccc(C(F)(F)F)cc1C(F)(F)F)n1cc(C#Cc2nnc(-c3ccccn3)s2)cn1 (stereo not drawn) [Compound 2-2]; < 50%

Q: Please state recorded activity at 10 µM (tested on ATF6 (Homo sapiens, UniProt P18850)) of Cc1nn(C(C)c2ccc(C(F)(F)F)cc2C(F)(F)F)cc1C#Cc1nnc(-c2ccccn2)s1 (stereo not drawn) [Compound 2-11]
Result: 50 to 75%

Q: Repeat with FC(F)(F)c1ccc(Cn2cc(C#Cc3nnc(-c4ccccn4)s3)cn2)c(C(F)(F)F)c1 [Compound 2-4]
Result: 75 to 100%

Q: # iterate: CC(c1ccc(C(F)(F)F)cc1C(F)(F)F)n1cc(C#Cc2nnc(-c3cnccn3)s2)cn1 (stereo not drawn) [Compound 2-10]
Result: 75 to 100%

Q: Then CC(c1ccc(C(F)(F)F)cc1C(F)(F)F)n1cc(C#Cc2nnc(-c3cnccn3)s2)cn1 (single isomer, unassigned) [Compound 2-21] ?
Result: 75 to 100%

Q: One more molecule: Cc1nn(C(C)c2ccc(C(F)(F)F)cc2C(F)(F)F)cc1C#Cc1nnc(-c2ccccn2)s1 (single isomer, unassigned) [Compound 2-23]
Result: 50 to 75%

Q: Follow-up entry: CC(c1c(Cl)cccc1Cl)n1cc(C#Cc2nnc(-c3ccccn3)s2)cn1 (stereo not drawn) [Compound 2-20]
Result: 100 to 125%

---

# target.under.test: ATF6 (Homo sapiens, UniProt P18850)
# Construct: endogenous in cells; host or cells: U2-OS (ATCC HTB-96) stably transduced with the Cignal Lenti ATF6 luc reporter (Qiagen #CLS-6031L)
# assay: ERSE ATF6-luciferase assay in presence of Tg-induced ER stress (U2-OS ATF6 TRE-luciferase reporter cells)
# Assay type: cell-based
# measurement.parameters: U2OS, 8 h, 10 μM test compound, in presence of ER stress (thapsigargin), Tg only = 100%, Table 2-3
measurement.label: activity at 10 µM

Record excerpt, results attached:
O=C(Nc1cnn(C2CCOC2)c1)c1cc(-c2cccs2)on1 (single isomer, unassigned) [Compound 3-22]; > 150%
CC(C1CCCC1)n1cc(NC(=O)c2cc(-c3ccco3)on2)cn1 (single isomer, unassigned) [Compound 3-17]; 125 to 150%
O=C(Nc1cnn(C2CCCC2)c1)c1cc(-c2ccco2)on1; > 150%
O=C(Nc1cnn(C2CCOC2)c1)c1cc(-c2cccs2)on1 (stereo not shown) [Compound 3-19]; > 150%
CC(C1CCCC1)n1cc(NC(=O)c2cc(-c3ccco3)on2)cn1 (stereo not shown) [Compound 3-5]; > 150%

Q: Which measured activity at 10 µM value corresponds to O=C(Nc1cnn(CC2CCCC2)c1)c1cc(-c2ccco2)on1 ?
Result: > 150%

Q: Another compound to check: O=C(Nc1cnn(Cc2c(Cl)cncc2Cl)c1)c1cc(-c2ccco2)on1
Result: 125 to 150%

Q: # repeat for O=C(Nc1cnn(C2CCOC2)c1)c1cc(-c2ccccn2)on1 (single isomer, unassigned)
Result: > 150%

Q: And the next one, CC(C1CCOC1)n1cc(NC(=O)c2cc(-c3ccco3)on2)cn1 (stereo not shown) ?
Result: > 150%

Q: Entry O=C(Nc1cnn(C2CCNC2)c1)c1cc(-c2ccco2)on1 (stereo not shown) please
Result: > 150%
